# METHOD NOTES: Dissociation constant, pKa of the compound
# Type: physicochemical
RESULT TYPE: pKa
Please respond with just the number, no unit label.

Task item: Specify pKa for O=C1CC(c2ccccc2)CC(O)=C1Sc1ccccc1Cl (centres undefined) and stop.
Reply: 3

Task item: Hello, please tell me recorded pKa for this one: O=C1CC(c2ccccc2)CC(O)=C1Oc1ccccc1Cl (centres undefined)
Reply: 3.7

Task item: Please supply the value of reported pKa for the item O=C1NC(c2ccccc2)CC(O)=C1Nc1ccccc1Cl (centres undefined)
Reply: 6

Task item: Note down pKa recorded for O=C1OC(c2ccccc2)CC(O)=C1Oc1ccccc1Cl (centres undefined)
Reply: 3.4

Task item: Return pKa for the following compound: O=C1NC(c2ccccc2)CC(O)=C1Oc1ccccc1Cl (centres undefined)
Reply: 5.3

Task item: Kindly indicate its recorded pKa. Item: O=C1OC(c2ccccc2)CC(O)=C1Sc1ccccc1Cl (centres undefined)
Reply: 2.4

Task item: Kindly indicate its recorded pKa. Item: O=C1NC(c2ccccc2)CC(O)=C1Sc1ccccc1Cl (centres undefined)
Reply: 4.1

Task item: Supply pKa value. Item: O=C1CC(c2ccccc2)CC(O)=C1Nc1ccccc1Cl (centres undefined)
Reply: 4.6

Task item: Name the recorded pKa of the item O=C1OC(c2ccccc2)CC(O)=C1Nc1ccccc1Cl (centres undefined) in your answer.
Reply: 4.2

* * *

Task for the reader: assign each of the following molecules its reported IC50.
The answer is to be given in µM; state only the numeric part.

Task item: Tell me its IC50 on UniProtKB P00338: O=C1OC2(CCc3c(Br)cccc32)CC(O)=C1Sc1ccccc1Cl (single isomer, unassigned)
Reply: 2.1

Task item: Tell me its IC50 on UniProtKB P00338: CCOc1ccccc1C1CC(O)=C(Sc2ccccc2Cl)C(=O)O1 (centres undefined)
Reply: 3.8

Task item: State IC50 on UniProtKB P00338. Entry: O=C1OC(c2ccccc2)CC(O)=C1Nc1ccccc1Cl (centres undefined)
Reply: 13

Task item: GET IC50 where system = UniProtKB P00338 and item = O=C1OC(C(=O)O)(c2ccccc2)CC(O)=C1Sc1ccccc1Cl (centres undefined)
Reply: 46

Task item: Print UniProtKB P00338 IC50 for CNC(=O)C1(c2ccccc2)CC(O)=C(Sc2ccccc2Cl)C(=O)O1 (centres undefined) .
Reply: 7.4

Task item: GET IC50 | system: UniProtKB P00338 | item: CN(C)C(=O)C1(c2ccccc2)CC(O)=C(Sc2ccccc2Cl)C(=O)O1 (centres undefined)
Reply: 22

Task item: Report the value of IC50 obtained on UniProtKB P00338 for O=C1OC2(CCc3c(Br)cccc32)CC(O)=C1Sc1ccccc1Cl (single isomer, unassigned; enantiomer A) .
Reply: 0.35

Task item: Give IC50 for O=C1OC(c2ccccc2)CC(O)=C1Sc1ccccc1Cl (centres undefined) tested on UniProtKB P00338.
Reply: 4

Task item: Please respond with reported IC50 (system UniProtKB P00338) for O=C1OC2(CCOc3ccccc32)CC(O)=C1Sc1ccccc1Cl (single isomer, unassigned; enantiomer A) .
Reply: 3.3

* * *

Give measured fraction unbound for each item. Keep answers brief.
# METHOD NOTES: Unbound fraction in rat plasma
# Assay type: ADME, cell-free
Please reply with the value in numeric form only.

Task item: Item O=C1CC(c2ccccc2)CC(O)=C1Oc1ccccc1Cl (stereo unspecified) : provide fraction unbound
Reply: 0.012

Task item: Kindly indicate its recorded fraction unbound. Item: O=C1OC(c2ccccc2)CC(O)=C1Oc1ccccc1Cl (stereo unspecified)
Reply: 0.013

Task item: Output fraction unbound of O=C1OC(c2ccccc2)CC(O)=C1Sc1ccccc1Cl (stereo unspecified)
Reply: 0.008

Task item: // fetch fraction unbound given entry O=C1NC(c2ccccc2)CC(O)=C1Sc1ccccc1Cl (stereo unspecified)
Reply: 0.006

Task item: Output fraction unbound of O=C1NC(c2ccccc2)CC(O)=C1Oc1ccccc1Cl (stereo unspecified)
Reply: 0.023

* * *

# METHOD NOTES: Kinetic solubility in pH 7.4 buffered aqueous solution
# Format: physicochemical
# CONDITION INFO: read-out: Kinetic_solubility
RESULT TYPE: solubility kinetic (µM)
Entry rule: numbers only, all in µM.

Task item: Provide one value: measured solubility kinetic of O=C1OC2(CCc3c(-c4ccccc4)cccc32)CC(O)=C1Sc1ccccc1Cl (single isomer, unassigned; enantiomer A)
Reply: 169

* * *

Field: Papp A→B. Provide a value for each of the molecules that follow.
# METHOD NOTES: Permeability from apical to basolateral side in MDCK cells
# Format: ADME, cell-based, Canis lupus familiaris
# CONDITION INFO: dog
Numbers only here, please. The scale is ×10⁻⁶ cm/s.

Task item: Identify Papp A→B associated with the molecule O=C1CC(c2ccccc2)CC(O)=C1Nc1ccccc1Cl (centres undefined)
Reply: 4

Task item: Specify Papp A→B for O=C1OC2(CCc3c(-c4ccccc4)cccc32)CC(O)=C1Sc1ccccc1Cl (single isomer, unassigned; enantiomer A) and stop.
Reply: 1.6

Task item: Tell us which Papp A→B value is on record for O=C1OC(c2ccccc2)CC(O)=C1Nc1ccccc1Cl (centres undefined)
Reply: 8

Task item: For O=C1NC(c2ccccc2)CC(O)=C1Oc1ccccc1Cl (centres undefined) , write its Papp A→B.
Reply: 11

* * *

Please respond with reported Papp B→A for every item in the list.
# METHOD NOTES: Permeability from basolateral to apical side in MDCK cells
# Assay type: ADME, cell-based, Canis lupus familiaris
# CONDITION INFO: dog
Express it in ×10⁻⁶ cm/s; write the number only.

Task item: Look up Papp B→A of O=C1CC(c2ccccc2)CC(O)=C1Sc1ccccc1Cl (centres undefined) and report it.
Reply: 18

Task item: Output measured Papp B→A for this item: O=C1NC(c2ccccc2)CC(O)=C1Sc1ccccc1Cl (centres undefined)
Reply: 9

Task item: Tell me Papp B→A reported for O=C1NC(c2ccccc2)CC(O)=C1Nc1ccccc1Cl (centres undefined)
Reply: 30

Task item: Item O=C1OC(c2ccccc2)CC(O)=C1Oc1ccccc1Cl (centres undefined) : provide Papp B→A
Reply: 6

Task item: For the molecule O=C1CC(c2ccccc2)CC(O)=C1Oc1ccccc1Cl (centres undefined) , report Papp B→A.
Reply: 16

Task item: Output measured Papp B→A for this item: O=C1OC(c2ccccc2)CC(O)=C1Sc1ccccc1Cl (centres undefined)
Reply: 5

Task item: Given the molecule O=C1CC(c2ccccc2)CC(O)=C1Nc1ccccc1Cl (centres undefined) , write its reported Papp B→A.
Reply: 10

Task item: Look up and state reported Papp B→A for O=C1OC(c2ccccc2)CC(O)=C1Nc1ccccc1Cl (centres undefined)
Reply: 10

Task item: Please give the documented Papp B→A of O=C1NC(c2ccccc2)CC(O)=C1Oc1ccccc1Cl (centres undefined)
Reply: 12

* * *

Record form. Attribute: IC50. Fill in for each entry.
Give the number first and the unit second.

Task item: Write down measured IC50 (L-lactate dehydrogenase A chain (Homo sapiens, UniProt P00338)) for this compound. O=C1OC(c2ccccc2)CC(O)=C1Oc1ccccc1Cl (centres undefined)
Reply: 11 µM

Task item: Write IC50 of O=C1OC2(CCc3ccccc32)CC(O)=C1Sc1ccccc1Cl (single isomer, unassigned; enantiomer A) ; system used: L-lactate dehydrogenase A chain (Homo sapiens, UniProt P00338)
Reply: 0.36 µM

Task item: # lookup: L-lactate dehydrogenase A chain (Homo sapiens, UniProt P00338) IC50, key = O=C1OC(c2ccncc2)CC(O)=C1Sc1ccccc1Cl (centres undefined)
Reply: 43 µM

Task item: Tell me its IC50 on L-lactate dehydrogenase A chain (Homo sapiens, UniProt P00338): O=C1OC(c2cccnc2)CC(O)=C1Sc1ccccc1Cl (centres undefined)
Reply: 15 µM
